# assay_text: yeast display, Sf9 membrane polyspecificity reagent, FACS + sequencing; frameworks hold sequencing errors
observed_property: polyreactivity (PSR sort gate)

Some solved entries appear below for comparison.
seq_string: QVQLVESGGGLVQAGGSLRLSCAASGRIFSKNAMGWCRQAPGKERELVAGITSISGSTYYADSVKGRFTISRDNAKNTVYLQMNSLKPEDTAVYYCAARFPHRHYLLYTYDYWGQGTQVTVSS
polyreactivity (PSR sort gate): low polyreactivity
--
seq_string: QVQLVESGGGLVQAAGSLRLSCAASGSIFTVYVMGWYRLAPGKEREFVATINWRGTSTYYADSVKGRFTISRDNEKNTVYLQMNSLKPEDTAVYYCAAVGSYYGGYDYWGQGTQVTVSS
polyreactivity (PSR sort gate): high polyreactivity
--
seq_string: QVQLVESGGGLVQAGGSLRLSCAAAGITLYRYVMGWYRQAPGKERELVADISGRGTSTYYADSEKGRFTISRDNAKNTVYLQMNSLKPEDTAVYYCNAEYTKTGALVIPYTYYYAEDYWGQGTQVTVSS
polyreactivity (PSR sort gate): low polyreactivity
--
seq_string: QVQLVESGGGLVQAGGSLRISCAASGFIFRSYAMGWYRQAPGKERELVAAISRSGGSTYYADSVKGRFTISRDNAKNTVYLQMNSLKPEDTAVYYCATDGGRSTARGYGHWGQGTQVTVSS
polyreactivity (PSR sort gate): high polyreactivity

// below: polyreactivity (PSR sort gate) requested for another sequence
GET /values?readout=polyreactivity (PSR sort gate)&item= "QVQLVESGGGLVQAGGSLRLSCAASGSIIWRNAMGWYIQAPGKERELVAAISYSGGSTYYADSVKGRFTISRDNAKNTVYLQMNSLKPEDTAVYYCAARTSYYVYRHPSGRYDYWGQGSQVTVSS"
low polyreactivity

* * *

# assay_text: yeast display, Sf9 membrane polyspecificity reagent, FACS + sequencing; frameworks hold sequencing errors
observed_property: polyreactivity (PSR sort gate)

// solved cases for polyreactivity (PSR sort gate) follow
seq_string: QVQLVESGGGLVQAGGSLRLSCAASGFIFVRYAMGWYRQAPGKERELVAAISTSGSSTYYADSVKGRFTISRDNAKNTVFLQMNSLKPEDTAVYYCAAKDRGQSYGYWGQGTQVTVSS
polyreactivity (PSR sort gate): high polyreactivity
//
seq_string: QVQLVESGGGLVQAGGSLRLSCAASGRTFYIYTMGWYRQAPGKERELVAAISSSGDSTYYADSVKGRFTISRDNAKNTVFLQMNPLKPEDTAVYYCAAYPTYPDEYWGQGTQVTVSS
polyreactivity (PSR sort gate): low polyreactivity
//
seq_string: QVQHVESGGGLVQAGGSLRLSCAASGRIFRYNAMGWYRQAPGKERELVAAITNGGSTNYADSVKGRFTISRDNAKNTVYLQMNSLKPEDTAVYYCNAQGRRYSQRYYYWGQGTQVTVSS
polyreactivity (PSR sort gate): high polyreactivity
//
seq_string: QVQLVESGGGLVQAGGSLRLSCAASGSIFTQYAMGWYREATGKERELVAAITSGGSTYADSVKGRFTISRDNANNTVYLQMNSLKPEDTAVYYCATQYSYRGVTFYYWGQGTQVTVSS
polyreactivity (PSR sort gate): low polyreactivity
//
seq_string: QVQLVESGGGLVQAGGSLRLSCAASGNTFFRYAMGWYRQAPGKERELVAAISKSGGSTYYADSVKGRFTISRDNAKNTVYLQMNSLKPEDTAVYYCAAYSPYGRYDYWGQGTQVTVSS
polyreactivity (PSR sort gate): high polyreactivity
//
seq_string: QVQLGESGGGLVQAGGSLRLSCAASGSTFITYAMGLYRQAPGKERELVAAITRGGRRYYADSVKGRFTISRDNAKNTVYLQMNSLKPEDTAVYYCAARDWASHTPFDYWGQGTQVTVSS
polyreactivity (PSR sort gate): high polyreactivity

May I ask what polyreactivity (PSR sort gate) has been recorded for "QVQLVESGGGLVQAGGSLRLSCAASGSTFPPNAMGWYRQAPGKERELVAVISYTSGRTYYADSVKGRFTISRDNAKNTVYLQMNSLKPEDTAVYYCNKRVLYRQRGFNYWGQGTQVTVSS" ?
high polyreactivity

"QVQLVESGGGLVQAGGSLRLSCAASGGIFDINAMGWYRQAPGKERELVAAISWGGGSTYYADSVKGRFTISRDNAKNTVYLQMNSLKPEDTAVYYCAAESVSIQPTPDEDYWGQGTQVTVSS" ?
high polyreactivity

Repeat with "QVQLQESGGGLVQAGGSLRLSCEASCYISDVNDMGWYRQAPGKEREFVAGFGYGGITNYADSVKGRFTISRDNAKNTVYLQMNSLKPKDSAVYNCAVHWGPDRGLYYWGQGTQVTVSS"
high polyreactivity

Ok, now "QVQLVESGGGLVQAGGSLRLSCAASGNTLTYNVMGWYRQAPGKERELVAAISGRGGRTYYADSVKGRFTISRDNAKNTVYLQMNCLKPEDTAVYYCAAKSRNGESGGFDYWGQATQVTVSS"
high polyreactivity

Now give it for "QVQLVESGGGLVQAGGSLRLSCAASGFSFWSNDMGWSRQAPGKEREFVAAITTSGGNTYYADSVKGRFTISRDNAKNTVYLQMQSLKPEDTAVYYCAAEEGSTDATGYDYWGEGTQVTVSS" too.
low polyreactivity

* * *

# assay_text: yeast display, Sf9 membrane polyspecificity reagent, FACS + sequencing; frameworks hold sequencing errors
observed_property: polyreactivity (PSR sort gate)

seq_string: QVQLVESGGGLVQAGGSLRLSCAASGSIFDDYAMGWYRQAPGKEREKVAAISWSGGRTYYADSVKGRFTISRDTAKNTVYLQMNSLKPEDTAVYYCAATTGVRSRRYYYWGQGTQVTVSS
experimental_value: high polyreactivity
--
seq_string: QVQLVESGGGLVQAGGSLRLSCAPSGIIFHKYAMGWYRQAPGTDRELVAVFTGRGGSTYYADSVKGRFTISRDFAKNTVYLQMNSLKPEDTAVYYCAAVTKSWRGATWYDYWGQGTQVTVSS
experimental_value: high polyreactivity

* * *

# assay_text: yeast display, Sf9 membrane polyspecificity reagent, FACS + sequencing; frameworks hold sequencing errors
observed_property: polyreactivity (PSR sort gate)

Worked cases, answers included:
seq_string: QVQLVESGGGLVQAGGSLRLSCAASGFTFYPYAMGWYRQAPGKERELVAASTASGGSTYYADSVKGRFTISRDNAKNTVYLQMNSLKPEDTAVFYCAKGWVSYWRYKNEYWGQGTQVTVSS
polyreactivity (PSR sort gate): high polyreactivity
--
seq_string: QVQLVESGGGLVQAGGSLRLSCAASGLIFPRYGMGGYRPAPGKERELVAAITRGGSTYYADSVKGRFTISRDNAKNTVYLQMNSLKPEDTAVYYCIAELPVHWSWYDYWGHGTQVTVSS
polyreactivity (PSR sort gate): low polyreactivity
--
seq_string: QVQLVESGGGLVQAGGSLRLSCAASGRTFISNAMGWYRQAPVKERELVAAISRSGGSTYYADSVKGRFTISRDNAKNTVYLQMNSLKPEDTAVYYCAATGKQWRTSYDYWGQGTQVTVSS
polyreactivity (PSR sort gate): high polyreactivity
--
seq_string: QVQLVESGGGLVQAGGSLRLSCAASGSTFYSNAMGCYRQAPGKEREFVAAITGGDVRTYYADSVKGRFTISRDNAKNTVYLPMNSLKPEDTAVYFCATGPYIWPEWSPGFDYWGQGTQVTVSS
polyreactivity (PSR sort gate): low polyreactivity
--
seq_string: QVQLVESGGGLVQAGGSLRLSCAASGRIFSGYAMGWYRQAPGKERELVAAIYGGGSTNYADSVKGRFTISRDNAKNTVYLQMNSLKPEDTAVYYCATQYWHYPYWLYKYDYWGQGTQVTVSS
polyreactivity (PSR sort gate): low polyreactivity

Sample "QVQLVESGGGLVQAGGSLRLSCAASGSIFRVNDMGWYRQAPGKERELVAAISSNGDDTFYADSVKGRFTISRDNAKNTVYLQMNSLKPEDTAVYYCNAESPTYPDYYFKYTHYDYWGQGTQVTVSS" — what was its polyreactivity (PSR sort gate)?
low polyreactivity

Next record, please: "QVQLVETGGGLVQAGGSLRLSCADSGSTFPGNGMVWSRQAPGKERELVAGISSGGRTYYADSVKGRVTISRDNAKNTVYLQLNRLKPEDTAVYYCATEGDYFAKYDRMDYWGQGTQVTVSS"
low polyreactivity

Let us now turn to "QVQLVESGGGLVQAGGSLRLICAASGRIFFVNAMGWYRQAPGKERELVAAISRSAGRTYYADSVKGRFTISRDNAKNTVYLQMNSLKPEDTAVYYCATEGRTDYNREMEYWGQGTQVTVSS"
low polyreactivity

Now consider "QVQLVESGGGLVQAGGSLRLSCAASGSIFKKNAMGWYRQEPGKERELVAAITRRGASTYYADSVKGRFTISRDNAKNNVYLQMNSLKREDTAVYYCAAPGKIGASFDNYYYWGQGTQVTVSS" .
high polyreactivity

Further, for "QVQLVESGGGLVQAGGSLRLSCAASGFTFGGYAMGWYRQAPGKERELVAAIRASGGSTYYADSVKGRFTISRDNAKNTVYLQMNSLKPEDTAVYYCNADIWYKTYDYWGQGTQVTVSS" ?
low polyreactivity

Also, "QVQLVESGGGLVQAGGSLRLSCAASGGIFVPNAMGWNRQAPGQEREFVARISFSGVSTYYADSVKGRFTISRDNAKNSVYLQLNSLKPEDTAVYYCACDKRARLGAMGYWGQGTQVTVSS" please.
low polyreactivity

Origin of the recorded values: the nanobody polyreactivity screen of Harvey et al. (2022)
